This collection of values is drawn from patent US8173635B2.

Catalogue of pKi values
target: PKC delta kinase (Homo sapiens); assay: PKC delta kinase inhibition, coupled-enzyme NADH absorbance assay (Ki); format: biochemical; settings: 150 μM ATP, 46 nM PKC delta, 30° C.; read-out: Ki PKC delta
Sequence (Q05655 whole entry): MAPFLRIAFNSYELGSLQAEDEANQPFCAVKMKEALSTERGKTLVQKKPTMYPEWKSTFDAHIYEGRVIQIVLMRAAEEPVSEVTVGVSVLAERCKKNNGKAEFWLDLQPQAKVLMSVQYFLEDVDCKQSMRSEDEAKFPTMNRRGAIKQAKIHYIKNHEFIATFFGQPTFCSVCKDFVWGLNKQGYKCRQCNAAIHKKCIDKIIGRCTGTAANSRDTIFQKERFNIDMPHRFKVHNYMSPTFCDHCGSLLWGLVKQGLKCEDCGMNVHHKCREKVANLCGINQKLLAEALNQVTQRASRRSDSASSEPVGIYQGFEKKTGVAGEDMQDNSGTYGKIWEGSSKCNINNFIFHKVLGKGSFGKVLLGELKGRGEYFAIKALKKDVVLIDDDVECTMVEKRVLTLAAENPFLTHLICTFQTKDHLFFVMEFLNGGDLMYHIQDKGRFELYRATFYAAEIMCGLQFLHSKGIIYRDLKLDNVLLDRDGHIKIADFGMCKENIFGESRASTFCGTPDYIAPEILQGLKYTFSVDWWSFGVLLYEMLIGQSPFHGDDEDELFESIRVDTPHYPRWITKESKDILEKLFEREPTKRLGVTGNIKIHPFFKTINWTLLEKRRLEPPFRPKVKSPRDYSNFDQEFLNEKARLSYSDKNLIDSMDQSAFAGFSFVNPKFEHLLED
pKi: −log10 of the molar value.
VALUE_KIND: pKi

MOLECULE	READING
C#CCC(C)(C#N)c1cccc(-c2ccnc3[nH]ncc23)c1 (stereo not drawn) [Compound 91]	> 5.55
CCC(C)(CN(C)C)c1cccc(-c2ccnc3[nH]ncc23)c1 (stereo not drawn) [Compound 138]	> 5.55
CCSc1cc(-c2ccnc3[nH]ncc23)cc(C(C)(CC)CN)c1 (stereo not drawn) [Compound 166]	> 5.55
CCCc1cc(-c2ccnc3[nH]ncc23)cc(C2(C#N)CCCC2)c1 [Compound 97]	< 5.55
NCC1(c2cc(F)cc(-c3ccnc4[nH]nc(C(F)(F)F)c34)c2)CCC1 [Compound 274]	> 6.30
NCC1(c2cc(N)cc(-c3ccnc4[nH]ncc34)c2)CCC1 [Compound 190]	< 5.70
CCC(C)(C#N)c1cc(-c2ccnc3[nH]ncc23)cc(C(F)(F)CC2CCCCC2)c1 (stereo not drawn) [Compound 119]	< 5.70
CCC(C)(C#N)c1cc(Br)cc(-c2ccnc3[nH]ncc23)c1 (stereo not drawn) [Compound 30]	> 5.55
N#CC(CCO)c1cccc(-c2ccnc3[nH]ncc23)c1 (stereo not drawn) [Compound 224]	< 5.70
